methodNotes: drug combination growth inhibition, ovarian cancer – cell-based, oncology-focused library, rucaparib conditional, profiling panel (AID 1508598)
conditionContext: patient-derived ovarian cancer cells, CellTiter-Glo viability, 144 h; at 0.00122 µM; OCI-P5x cells; with rucaparib 20 µM; 100% = cells with rucaparib alone
Active and inactive are the calls of the source.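 The calls were made as follows: active = normalized viability below 100% at a tested concentration; inactive = the rest.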
Outcome codes: active, inactive

| compound | classLabel |
| --- | --- |
| N#Cc1ccc(C(c2ccc(C#N)cc2)n2cncn2)cc1 | inactive |
| Cc1nc2ccc(CN(C)c3ccc(C(=O)N[C@@H](CCC(=O)O)C(=O)O)s3)cc2c(=O)[nH]1 | inactive |
| CCC(C)n1ncn(-c2ccc(N3CCN(c4ccc(OC[C@H]5CO[C@](Cn6cncn6)(c6ccc(Cl)cc6Cl)O5)cc4)CC3)cc2)c1=O (some centres undefined) | active |
| COc1ccccc1OCC(O)CN1CCN(CC(=O)Nc2c(C)cccc2C)CC1 (centres undefined) | active |

Where do these numbers come from? They come from PubChem BioAssay.
